Target: recombinant rat PIM-3 (Rattus norvegicus)
Experiment: PIM-3 Assay (as Example A)
Format: biochemical
Conditions: averaged IC50; 30 μM ATP, 3.75 μM PIM2tide, 0.5 nM PIM-3
Counter-ions that a name gives are not always drawn.
Field: log10 of IC50. Provide a value for each of the compounds that follow.
Each number you see is log10 of IC50, and the unit inside the log is nM.

query: What value of log10 of IC50 has been reported for the following compound? CC(C)Oc1cccc2ccc(-c3nnc4ccc([C@@H](N5C[C@@H](N)[C@@H](O)C5)C(F)(F)F)cn34)nc12 [Example 129, dihydrochloride]
result: 0.89

query: What value of log10 of IC50 has been reported for the following compound? CNC(=O)c1ccc2ccc(-c3nnc4ccc([C@@H](N5CC[C@H](N)C5)C(F)(F)F)cn34)nc2c1 [Example 42, dihydrochloride]
result: -0.30

query: What value of log10 of IC50 has been reported for the following compound? CCOc1cccc2ccc(-c3nnc4ccc([C@@H](N5CC[C@H](N)C5)C(F)(F)F)cn34)nc12 [Example 79]
result: 0.48

query: What value of log10 of IC50 has been reported for the following compound? CC1(COc2ccc3ccc(-c4nnc5ccc([C@@H](N6CC[C@H](N)C6)C(F)(F)F)cn45)nc3c2)COC1 [Example 198, diformate]
result: -0.70

query: What value of log10 of IC50 has been reported for the following compound? CCOc1cc2nc(-c3nnc4ccc([C@@H](N5CCC(N)(CC)C5)C(F)(F)F)cn34)ccc2cc1F (single isomer, unassigned; diastereomer 2) [Example 253, dihydrochloride]
result: 0.34

query: What value of log10 of IC50 has been reported for the following compound? N[C@H]1CCN([C@H](c2ccc3nnc(-c4ccc5ccc(CCO)cc5n4)n3c2)C(F)(F)F)C1 [Example 265, dihydrochloride]
result: 0.11

query: What value of log10 of IC50 has been reported for the following compound? OCC1(c2cc(F)cc3ccc(-c4nnc5ccc([C@@H](N6CC[C@H](O)C6)C(F)(F)F)cn45)nc23)CC1 [Example 126, hydrochloride]
result: 0.28

query: What value of log10 of IC50 has been reported for the following compound? N[C@H]1CCN([C@H](c2ccc3nnc(-c4ccc5ccc(F)c(C6CC6)c5n4)n3c2)C(F)(F)F)C1 [Example 60, dihydrochloride]
result: 0.60

query: What value of log10 of IC50 has been reported for the following compound? CO[C@@H](C)COc1ccc2ccc(-c3nnc4ccc([C@H](N5CC[C@](C)(N)C5)C(F)(F)F)cn34)nc2c1 [Example 304]
result: -0.52

query: What value of log10 of IC50 has been reported for the following compound? CCC(C)(C)NC(=O)c1ccc2ccc(-c3nnc4ccc([C@@H](N5CC[C@@H](N)C5)C(F)(F)F)cn34)nc2c1 [Example 59, dihydrochloride]
result: -0.10

query: What value of log10 of IC50 has been reported for the following compound? CC(C)(C)c1cccc2ccc(-c3nnc4ccc([C@@H](N5CC[C@H](N)C5)C(F)(F)F)cn34)nc12 [Example 45, dihydrochloride]
result: -0.30

query: What value of log10 of IC50 has been reported for the following compound? CC(C)(C)c1cccc2ccc(-c3nnc4ccc([C@@H](N5CC[C@](N)(CO)C5)C(F)(F)F)cn34)nc12 [Example 189, dihydrochloride]
result: 0.18

query: What value of log10 of IC50 has been reported for the following compound? COc1cccc2ccc(-c3nnc4ccc([C@@H](N5C[C@@H](N)[C@@H](O)C5)C(F)(F)F)cn34)nc12 [Example 137, dihydrochloride]
result: 1.53

query: What value of log10 of IC50 has been reported for the following compound? CC(C)(O)COc1ccc2ccc(-c3nnc4ccc([C@@H](N5CC[C@H](N)C5)C(F)(F)F)cn34)nc2c1 [Example 278, dihydrochloride]
result: -0.40

query: What value of log10 of IC50 has been reported for the following compound? Fc1ccc2ccc(-c3nnc4ccc([C@@H](N5C[C@@H]6C[C@H]5CN6)C(F)(F)F)cn34)nc2c1 [Example 63, dihydrochloride]
result: 1.40

query: What value of log10 of IC50 has been reported for the following compound? COCCOc1ccc2ccc(-c3nnc4ccc([C@@H](N5CC[C@H](N)C5)C(F)(F)F)cn34)nc2c1C1CC1 [Example 152, dihydrochloride]
result: -0.52

query: What value of log10 of IC50 has been reported for the following compound? CCNC(=O)Cc1cccc2ccc(-c3nnc4ccc([C@@H](N5CC[C@H](N)C5)C(F)(F)F)cn34)nc12 [Example 235, dihydrochloride]
result: 1.52

query: What value of log10 of IC50 has been reported for the following compound? CC(C)NC(=O)c1ccc2ccc(-c3nnc4ccc([C@H](N5CC[C@H](N)C5)C(F)(F)F)cn34)nc2c1 [Example 48, dihydrochloride]
result: 0.28

query: What value of log10 of IC50 has been reported for the following compound? N[C@H]1CCN([C@H](c2ccc3nnc(-c4ccc5cccc(OCCO)c5n4)n3c2)C(F)(F)F)C1 [Example 219, dihydrochloride]
result: 0.08

query: What value of log10 of IC50 has been reported for the following compound? COCCOc1cc2nc(-c3nnc4ccc([C@H](N5CC[C@](C)(N)C5)C(F)(F)F)cn34)ccc2cc1F [Example 298, dihydrochloride]
result: -0.40

query: What value of log10 of IC50 has been reported for the following compound? N[C@H]1CCN([C@H](c2ccc3nnc(-c4ccc5cc(F)c(C6CC6)cc5n4)n3c2)C(F)(F)F)C1 [Example 176, dihydrochloride]
result: 0.43

query: What value of log10 of IC50 has been reported for the following compound? COCCOc1cccc2ccc(-c3nnc4ccc([C@@H](N5CC[C@H](N)C5)C(F)(F)F)cn34)nc12 [Example 227, dihydrochloride]
result: 0.40

query: What value of log10 of IC50 has been reported for the following compound? N[C@H]1CCN(C(c2ccc3nnc(-c4ccc5ccc(Br)cc5n4)n3c2)C(F)(F)F)C1 (stereo partly drawn) [Example 2, dihydrochloride]
result: 0.00
